Parameter OD: see the listing below.
Experimental Target: recombinant soluble trimeric 1918 H1 HA (A/South Carolina/1/1918, wild type) (Influenza A virus A/South …, UniProt Q9WFX3 18-529)
Sequence (Q9WFX3 18-529): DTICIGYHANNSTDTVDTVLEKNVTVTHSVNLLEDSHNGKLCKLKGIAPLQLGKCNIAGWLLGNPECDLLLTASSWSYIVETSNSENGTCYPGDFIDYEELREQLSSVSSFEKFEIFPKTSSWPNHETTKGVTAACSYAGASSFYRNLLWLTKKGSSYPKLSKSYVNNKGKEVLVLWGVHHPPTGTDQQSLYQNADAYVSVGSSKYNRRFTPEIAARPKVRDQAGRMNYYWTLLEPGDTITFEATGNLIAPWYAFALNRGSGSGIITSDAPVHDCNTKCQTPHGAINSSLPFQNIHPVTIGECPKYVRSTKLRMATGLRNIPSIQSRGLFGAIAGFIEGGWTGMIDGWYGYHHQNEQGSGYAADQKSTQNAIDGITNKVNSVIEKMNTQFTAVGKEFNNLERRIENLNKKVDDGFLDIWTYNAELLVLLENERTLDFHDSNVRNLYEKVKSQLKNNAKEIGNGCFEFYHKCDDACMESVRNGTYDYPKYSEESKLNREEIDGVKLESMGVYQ
Assay Comment: ELISA, supernate
Please respond with the number in OD and leave the unit unwritten.

# count of solved cases: 3
[[record]]
binder = "mAb 8F8 (antibody, V domains shown) VH: EVQLLESGGGVVQPGRSLRLSCAASGFMFSSYVMHWVRQPPGKGLEWVAVIWYDGSKTYFADSMRGRLTVSRDNSKNALYLQMNRLRAEDTAVYYCARQQDSGYSGPEVSYYSHYGMDVWGQGTTVIVS VL: QSVLTQSPSASGTPGRAITISCSGSSSNIGSNPVNWYQQLPGAAPKLLIYADEHRPSGVPDRFSGPKSGTSASLAISGLQSEDEADYYCAAWDDSLSGPAVVFGGGTKLTVLG"
measured = 0.07

[[record]]
binder = "mAb 25J3 (antibody, V domains shown) VH: QVQLQESGPGLVRPSETLSLTCNVSGDSINDYYWSWIRQPPGKGLEWIGYIYYSGSTNYNPSLNSRVTISVEMSKNQFSLILNSVTAADTAVYYCARVDYDSGGSFDPWGQGTLVTVS VL: QSVLTQPPSVSGAPGQRVTISCTGSSSNIGAGYDVHWYQQLPGTAPKLLIYGNSNRPSGVPDRFSGSKSGTSASLAITGLQAEDEADFYCQSYDSRLSGYVFGTGTKVTVLG"
measured = 0.07

[[record]]
binder = "mAb 18G6 (antibody, V domains shown) VH: QVQLKESGPGLVKPSETLSLTCTVSGGSISSSNYNWGWIRQPPGKGLEWIGSVYYSGSTYFNPSLKSRVTISVDTSKNQFSLKLTSVTAADTAVYYCARLIAFYYDTNGYTWGQGTLVTVS VL: NSIMTQSPFTLSASVGDKVTITCRASQSISPWLAWYQQKPGKAPKLLIYKASSLETGVPSRFSGSESGTEFTLTISGLQPDDFATYYCQQYSSFARTFGQGTKVEIKR"
measured = 0.075


Now look at this one.
Lookup: What measured OD goes with mAb 11J19 (antibody, V domains shown) VH: EVQLQESGPGLVKPSETLSLSCTVSGGSITRSSYYWGWIRQPPGKGLEWIGNIYYSGTTYYNPSLKSRVTISVDTSKNQFSLKLSSVTAADTAVYYCARLYGSGLDYWGQGTLVTVS VL: DIQLTQSPSFLSASVGDRVTITCRASQGSSRYVAWYQQKPGKAPKLLILAASTLHTGVPSRFSGSGSGTEFTLTISSLQPEDFATYSCQQLNGFLLTFGGGTKVEIKR ?
Found: 0.079

src = patent US20130289246A1
